target: Bcl-2 protein (Recombinant Human Bcl-2 Protein) (Homo sapiens); construct: purchased Novus NBP2-34889; experiment: Binding evaluation of mixture library compounds to Bcl-2 using AS-MS (affinity selection mass spectrometry); conditions: AS-MS, mixture library, Bcl-2; replicate n = 1; ASMS Ratio(%)=(A−C)/B×100
Sequence (P10415 whole entry): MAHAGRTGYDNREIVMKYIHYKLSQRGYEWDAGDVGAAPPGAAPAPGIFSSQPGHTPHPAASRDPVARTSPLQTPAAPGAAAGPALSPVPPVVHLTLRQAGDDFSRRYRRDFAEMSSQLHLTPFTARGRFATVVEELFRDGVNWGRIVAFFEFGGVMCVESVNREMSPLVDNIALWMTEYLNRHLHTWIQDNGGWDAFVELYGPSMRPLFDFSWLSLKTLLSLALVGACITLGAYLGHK
PROPERTY NAME: ASMS ratio (%) n = 1
Numbers only here, please. The scale is %.

CCOc1cncc(-c2ccccc2CN2CCN(c3ccc(C(=O)N(CC)CC)nn3)CC2)c1
−1.6

Any idea what ASMS ratio (%) n = 1 came out for CCOc1cncc(-c2cc(CN3CCN(c4ccc(C(=O)NS(=O)(=O)CC56CC7CC(CC(C7)C5)C6)cc4)CC3)cc(OC(C)C)c2)c1 on Bcl-2 protein (Recombinant Human Bcl-2 Protein) (Homo sapiens)?
4.8

Any idea what ASMS ratio (%) n = 1 came out for CCOc1cncc(-c2cnn(-c3cc(C(=O)N4CCN(c5ccc(C(=O)NS(=O)(=O)CC67CC8CC(CC(C8)C6)C7)cc5)CC4)cc(C(F)(F)F)c3)c2)c1 on Bcl-2 protein (Recombinant Human Bcl-2 Protein) (Homo sapiens)?
0.7

Any idea what ASMS ratio (%) n = 1 came out for CCOc1cccc(-c2ccc(C(=O)N3CCN(c4ccc(C(=O)NS(=O)(=O)CC56CC7CC(CC(C7)C5)C6)cc4)CC3)cc2F)c1 on Bcl-2 protein (Recombinant Human Bcl-2 Protein) (Homo sapiens)?
5.5

====

target: Bcl-2 protein (Recombinant Human Bcl-2 Protein) (Homo sapiens); construct: purchased Novus NBP2-34889; assay: Binding evaluation of mixture library compounds to Bcl-2 using AS-MS (affinity selection mass spectrometry); conditions: AS-MS on the mixture of 1200 library compounds; ASMS Ratio(%)=(A−C)/B×100; replicate n = 1
PROPERTY NAME: ASMS ratio (%) n = 1
Numbers only here, please. The scale is %.

CCOc1cccc(C#Cc2ccccc2C(=O)N2CCN(c3ccc(C(=O)Nc4ccc(OC)cc4)cc3)CC2)c1
0.0
CCOc1cccc(C#Cc2cc(C(=O)N3CCN(c4ccc(C(=O)Nc5ccc(OC)cc5)nn4)CC3)cc(C(F)(F)F)c2)c1
0.6
CCOc1cccc(C#Cc2ccccc2C(=O)N2CCN(c3ccc(C(=O)N(CC)CC)cc3)CC2)c1
0.0
CCOc1cncc(-c2ccc(C(=O)N3CCN(c4ccc(C(=O)N(C)CC56CC7CC(CC(C7)C5)C6)cc4)CC3)c3ccccc23)c1
2.8
CCOc1cccc(-c2cc(CN3CCN(c4ccc(C(=O)N(CC)CC)cc4)CC3)cc(OCC)c2)c1
−0.7

Query (molecule): CCOc1cncc(-c2ccccc2CN2CCN(c3ccc(C(=O)N(C)CC45CC6CC(CC(C6)C4)C5)cc3)CC2)c1 ; field requested: ASMS ratio (%) n = 1
1.5

Query (molecule): CCOc1cccc(-c2cc(CN3CCN(c4ccc(C(=O)Nc5ccc(OC)cc5)cc4)CC3)cc(OC(F)(F)F)c2)c1 ; field requested: ASMS ratio (%) n = 1
3.5

Query (molecule): CCOc1cccc(-c2ccc(C(=O)N3CCN(c4ccc(C(=O)N(C)CC56CC7CC(CC(C7)C5)C6)cc4)CC3)cc2C)c1 ; field requested: ASMS ratio (%) n = 1
15.7

====

Recorded ASMS ratio (%) n = 1 for the following compounds
target: Bcl-2 protein (Recombinant Human Bcl-2 Protein) (Homo sapiens); construct: purchased Novus NBP2-34889; assay: Binding evaluation of mixture library compounds to Bcl-2 using AS-MS (affinity selection mass spectrometry); details: AS-MS on the mixture of 1200 library compounds; ASMS Ratio(%)=(A−C)/B×100; replicate n = 1
In your response, the unit should come after the numeric value.

Observe how each entry below is paired with its result.
CCOc1cncc(C#Cc2ccccc2CN2CCN(c3ccc(C(=O)Nc4ccc(OC)cc4)nn3)CC2)c1 [B1O096-01]
0.0%
CCOc1cncc(-c2ccc(CN3CCN(c4ccc(C(=O)N(C)CC56CC7CC(CC(C7)C5)C6)nn4)CC3)c3ccccc23)c1 [B3A092-01]
1.1%
CCOc1cccc(-c2ccc(C(=O)N3CCN(c4ccc(C(=O)N(C)CC56CC7CC(CC(C7)C5)C6)nn4)CC3)cc2C)c1 [B3A003-01]
6.5%
CCOc1cccc(C#Cc2cc(C(=O)N3CCN(c4ccc(C(=O)N(CC)CC)cc4)CC3)cc(C(F)(F)F)c2)c1 [B4J041-01]
2.8%
CCOc1cncc(-c2cnn(-c3cc(C(=O)N4CCN(c5ccc(C(=O)Nc6ccc(OC)cc6)nn5)CC4)cc(C(F)(F)F)c3)c2)c1 [B1O022-01]
5.6%
CCOc1cncc(-c2cc(C(=O)N3CCN(c4ccc(C(=O)N(CC)CC)nn4)CC3)cc(C(F)(F)F)c2)c1 [B4J018-01]
−0.5%
CCOc1cccc(-c2cc(OC)c(CN3CCN(c4ccc(C(=O)Nc5ccc(OC)cc5)nn4)CC3)c(OC)c2)c1 [B1O085-01]
−1.1%
CCOc1cccc(-c2csc(C(=O)N3CCN(c4ccc(C(=O)N(CC)CC)cc4)CC3)c2)c1 [B4J023-01]
3.5%
CCOc1cccc(-c2ccccc2CN2CCN(c3ccc(C(=O)Nc4ccc(OC)cc4)cc3)CC2)c1 [B1O045-01]
0.0%
CCOc1cccc(-c2ccccc2CCC(=O)N2CCN(c3ccc(C(=O)N(CC)CC)nn3)CC2)c1 [B4J011-01]
−0.1%

Query (compound): CCOc1cccc(-c2ccc(CN3CCN(c4ccc(C(=O)N(CC)CC)cc4)CC3)c(OC)c2)c1 [B4J053-01] ; field requested: ASMS ratio (%) n = 1
−0.1%

Query (compound): CCOc1cncc(-c2cc(CN3CCN(c4ccc(C(=O)Nc5ccc(OC)cc5)nn4)CC3)cc(OCC)c2)c1 [B1O082-01] ; field requested: ASMS ratio (%) n = 1
1.5%
